tested on: Pseudomonas aeruginosa; assay: Antibacterial activity against Pseudomonas aeruginosa DSM 50071 assessed as growth inhibition after 18 hrs; type: functional; details: DSM 50071, 18 h
Peptide text beside a SMILES is read from it. * marks the point of attachment. Hexanoyl = CCCCCC(=O)*
What MIC was measured for each of the following?

Prompt: Given N=C(N)NCCC[C@H](NC(=O)[C@H](Cc1c[nH]c2ccccc12)NC(=O)[C@H](CCCNC(=N)N)NC(=O)[C@H](Cc1c[nH]c2ccccc12)NC(=O)[C@H](CCCNC(=N)N)NC(=O)[C@@H](N)CCCCN)C(=O)N[C@@H](Cc1c[nH]c2ccccc12)C(N)=O (H-KRWRWRW-NH2) , state its recorded MIC.
Completion: > 100 µM

Prompt: Now give it for N=C(N)NCCC[C@H](NC(=O)[C@H](Cc1c[nH]c2ccccc12)NC(=O)[C@H](CCCNC(=N)N)NC(=O)[C@H](Cc1c[nH]c2ccccc12)NC(=O)[C@@H](N)CCCNC(=N)N)C(=O)N[C@@H](Cc1c[nH]c2ccccc12)C(=O)N[C@@H](CCCCN)C(N)=O (H-RWRWRWK-NH2) too.
Completion: > 100 µM

Prompt: Now give it for CCCCCC(=O)NCCCC[C@H](NC(=O)[C@H](Cc1c[nH]c2ccccc12)NC(=O)[C@H](CCCNC(=N)N)NC(=O)[C@H](Cc1c[nH]c2ccccc12)NC(=O)[C@H](CCCNC(=N)N)NC(=O)[C@H](Cc1c[nH]c2ccccc12)NC(=O)[C@@H](N)CCCNC(=N)N)C(N)=O (H-RWRWRWK(Hexanoyl)-NH2) too.
Completion: 74 µM

Prompt: Now give it for CC(=O)NCCCC[C@H](NC(=O)[C@H](Cc1c[nH]c2ccccc12)NC(=O)[C@H](CCCNC(=N)N)NC(=O)[C@H](Cc1c[nH]c2ccccc12)NC(=O)[C@H](CCCNC(=N)N)NC(=O)[C@H](Cc1c[nH]c2ccccc12)NC(=O)[C@@H](N)CCCNC(=N)N)C(N)=O (H-RWRWRWK(Ac)-NH2) too.
Completion: > 100 µM
